# TARGET OF ASSAY: human ALX receptor (Homo sapiens)
# Sequence (P25090 whole entry): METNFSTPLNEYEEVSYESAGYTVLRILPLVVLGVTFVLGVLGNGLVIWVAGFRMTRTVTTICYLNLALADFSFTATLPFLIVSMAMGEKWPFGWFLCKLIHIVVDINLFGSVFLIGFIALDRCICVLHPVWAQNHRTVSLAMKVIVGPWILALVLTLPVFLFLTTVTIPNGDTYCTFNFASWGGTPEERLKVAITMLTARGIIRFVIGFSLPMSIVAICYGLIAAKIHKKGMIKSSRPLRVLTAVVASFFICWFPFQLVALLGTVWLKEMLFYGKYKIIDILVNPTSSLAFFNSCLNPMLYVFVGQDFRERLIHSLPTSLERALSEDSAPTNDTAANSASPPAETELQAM
# MEASUREMENT PROTOCOL: Intracellular calcium measurements (FLIPR), agonistic activity in HEK293-hALXR-Gα16 cells
# STATED CONDITIONS: Fluo-4 calcium FLIPR, normalized to WKYMVm 10 nM
# Protocol: The ALX receptor and FPRL2 agonistic activities of the compounds of formula (I) are determined in accordance with the following experimental method. Intracellular Calcium Measurements: Cells expressing recombinant human ALX receptor and the G-protein Gα16 (HEK293-hALXR-Gα16) were grown to 80% confluency in Growing Medium (GM). […] Changes in fluorescence were monitored before and after the addition of test compounds at lex=488 nm and lem=540 nm. […]
pEC50: −log10 of the molar value.

COMPOUND	pEC50
O=C(NCCOCCO)[C@H]1[C@H](C(=O)Nc2ncc(Br)s2)[C@@H]2CC[C@H]1C21CC1 [Example 407]	7.96
O=C(NC1CCNCC1)[C@H]1[C@H](C(=O)Nc2ncc(Br)s2)[C@@H]2C=C[C@H]1C21CC1 [Example 323]	7.77
CCN(CC)CCN(CC)C(=O)[C@H]1[C@H](C(=O)Nc2ccc(Br)cc2)[C@@H]2C=C[C@H]1C21CC1 (racemic) [Example 39]	8.12

Hello, the source for this data is patent US8563714B2, in case you need it.
